target: T1, human Granzyme B (human, UniProt P10144 21-247); assay: SPR, Biacore 8k+, hGranzyme B captured on SA chip, single cycle kinetics, 1:1 model; Compound 69a, observed m/z 912.6
T1 construct: Captured on a Series S Streptavidin chip for SPR; also called hGranzyme B; GzmB
T1 sequence (P10144 21-247 limits assumed): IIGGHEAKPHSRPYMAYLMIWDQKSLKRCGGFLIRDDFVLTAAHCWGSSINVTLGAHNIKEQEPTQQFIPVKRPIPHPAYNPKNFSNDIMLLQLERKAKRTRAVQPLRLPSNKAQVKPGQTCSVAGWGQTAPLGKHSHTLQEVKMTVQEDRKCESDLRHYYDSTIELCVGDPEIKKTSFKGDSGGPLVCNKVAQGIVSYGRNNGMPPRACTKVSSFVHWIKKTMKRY
Bridge positions count the residues as written; N and C are the ends. Square brackets hold non-standard residues; d marks the D form. Pro(4S-Me) = C[C@@H]1CN[C@H](C(=O)O)C1
QUANTITY_NAME: Kd (nM)
Quick reminder: number only, in nM, skip the unit.

Data point: {CH2CO}-FNFEDQS[Pro(4S-Me)]DTWQPCG-NH2 (thioether N-14) [Compound 69a] ; Kd = 17.2
